Each recorded value in this set is attributed to ChEMBL document CHEMBL1157539.

System: Plasmodium falciparum
Experiment: GSK_TCMDC: Inhibition of Plasmodium falciparum Dd2 in whole red blood cells, using parasite LDH activity as an index of growth. Test compounds present at 2uM
Type: functional
METRIC: Inhibition (%)

COMPOUND	METRIC	UNIT SYMBOL	QUANTITATIVE READOUT
Cc1ccc(C)c(Cn2ccc3nc(N)nc(N)c32)c1	Inhibition	%	3
CN1CCC(NCc2cccc(-c3ccc(S(=O)(=O)NCc4ccccc4)c(F)c3)c2)CC1.O=C(O)C(F)(F)F	Inhibition	%	99
COc1ccc2nccc([C@@H](O)CN3CCC(NCc4ccc5c(n4)NCCC5)CC3)c2c1	Inhibition	%	39
c1ccc(COc2ccc(COc3ccc(Cn4ccnc4)cc3)cc2)cc1	Inhibition	%	45
O=C(O)C1CC(=O)N(c2ccc(Cl)cc2)C1 (stereo not given)	Inhibition	%	33
CC(=NNC(S)=Nc1ccccc1Cl)c1ccccn1	Inhibition	%	99
NC1CCCN(Cc2ccc(-c3cccc(-c4nc5ccccc5[nH]4)c3)cc2)C1.O=C(O)C(F)(F)F (stereo not given)	Inhibition	%	26
CCC(C)(C)c1ccc(Oc2ccc(NC(=O)Nc3ccc(Cl)c(Cl)c3)cc2)cc1	Inhibition	%	97
CCC(C)NS(=O)(=O)c1ccc2nc(Nc3ccc(C)c(Cl)c3)n(C3CCCCC3)c2c1 (stereo not given)	Inhibition	%	98
CCCC[C@H](NC(=O)O[C@H](COc1ccc(OCc2ccccc2)cc1)C(C)(C)C)C(=O)C(=O)Nc1cc[nH]n1	Inhibition	%	71

---

Test system: Plasmodium falciparum
Assay: GSK_TCMDC: Inhibition of Plasmodium falciparum Dd2 in whole red blood cells, using parasite LDH activity as an index of growth. Test compounds present at 2uM
Assay type: functional
The label True is reserved for Inhibition strictly under 90%; False covers values equal to or above it.

MOLECULE	LABEL CLASS
COCCNCc1cccc(-c2ccccc2CN(C(=O)c2ccc3c(c2)OCO3)c2ccc(OC)cc2)c1.O=C(O)C(F)(F)F	True
O=C(/C=C/c1ccc(Cl)c(Cl)c1)N1CCCC(CCCN2CCC(c3c[nH]c4ccccc34)CC2)C1 (stereo not drawn)	True
FC(F)(F)c1ccc2[nH]c(-c3cccc(-c4ccc(CNCCc5ccncc5)cc4)c3)nc2c1.O=C(O)C(F)(F)F	False
CN1CCN(c2ccc(Nc3ncc(Cl)c(Nc4cccnc4C(N)=O)n3)cc2)CC1.Cl	False
CCN(CC)CCN(Cc1ccc(-c2ccc(C(F)(F)F)cc2)cc1)C(=O)Cn1c(CCc2cc(F)c(F)c(F)c2)nc(=O)c2ccccc21.O=C(O)C(O)C(O)C(=O)O	True
Cc1ccccc1C1CCN(C2CCC(NC(=O)/C=C/c3ccc(C(F)(F)F)cc3F)CC2)CC1 (stereo not drawn)	True
Cl.O=C(Nc1cccc2ccccc12)N1CCc2cc3nccc(N4CCN5CCC[C@H]5C4)c3cc21	True
O=C(Nc1cccc(-c2nn3ccccc3c2-c2ccnc(Nc3ccc(-c4cc[nH]n4)cc3)n2)c1)c1c(F)cccc1F	False

---

Below, each entry is listed with its recorded Inhibition.
Test system: Plasmodium falciparum
Assay: GSK_TCMDC: Inhibition of Plasmodium falciparum 3D7 in whole red blood cells, using parasite LDH activity as an index of growth. Test compounds present at 2uM
Type: functional

COMPOUND	Inhibition
CC(C)N1CCC(N(Cc2ccc(-c3ccc(C(F)(F)F)cc3)cc2)C(=O)Cn2c(CCc3cccc(F)c3F)cc(=O)c3ccccc32)CC1.O=C(O)C(O)C(O)C(=O)O	99%
O=C(NCCCCN1CCN(c2nsc3ccccc23)CC1)c1ccccc1C(=O)NCCCCN1CCN(c2nsc3ccccc23)CC1	100%
O=c1cc(NCCCNC(c2ccccc2)c2ccc(Cl)c(Cl)c2)[nH]c2ccccc12 (stereo unspecified)	89%
N=C(/N=C(/NCCCCCCN/C(=N/C(=N)NCc1ccc(Cl)c(Cl)c1)N1CCCCC1)N1CCCCC1)NCc1ccc(Cl)c(Cl)c1	100%
O=C(NC1CCCCN(Cc2ccccc2O)C1)c1ccc(-c2ccccc2)cc1.O=C(O)C(F)(F)F (stereo unspecified)	97%
O=C(/C=C/c1ccc(C(F)(F)F)cc1)NCCCCCN1CCC(c2c[nH]c3ccccc23)CC1	100%
CCCc1ccc(Cc2cnc3nc(N)nc(N)c3c2C)cc1	98%
Cn1nc(-c2ccccc2F)c2cc(C(=O)NC3CCN(Cc4ccccc4)CC3)sc21	97%
Cc1cc(N(CCO)CCCN2CCCCC2)nc(Nc2ccc(Cl)cc2)n1.Cl	100%
Fc1ccccc1CNc1ncc(-c2ccsc2)c(-c2nccs2)n1	86%
Br.CC(CON1C(N)=NC(N)=NC1(C)C)c1ccc(Cl)cc1Cl (stereo unspecified)	97%
CN1CCc2cc(NS(=O)(=O)c3ccc(-c4ccc(Cl)cc4)cc3)c(OCCCN3CCCCC3)cc2CC1.Cl	100%
Cc1ccc2c(N/N=C/c3cccc([N+](=O)[O-])c3)cc(C)nc2c1	100%
Cc1ccc([N+](=O)[O-])cc1NC(=O)N(CC(O)c1ccccc1)C1CCCCC1 (stereo unspecified)	100%
Cc1cc(-c2cccc(CNCc3ccc(F)cc3)c2)ccc1S(=O)(=O)NCCN1CCCC1.O=C(O)C(F)(F)F	100%
Cc1cccc(C(=O)Nc2ccnc(N(C)CCCN(C)Cc3cccc(O)c3)c2)c1.O=C(O)C(F)(F)F	94%
COc1ccc(Nc2ccnc3cc4ccccc4cc23)cc1.Cl	100%
O=C(Nc1ccc(-c2nc3ccccc3[nH]2)cc1)c1ccc(Cl)s1	99%
CCCCNC(=N)Nc1ccc(OCCCOc2ccc(NC(=N)NCCCC)cc2)cc1	96%
COc1ccc2nccc([C@@H](O)CN3CCC(NCc4nc5c([N+](=O)[O-])cccc5[nH]4)CC3)c2c1.O=C(O)C(=O)O	100%
O=C(C=Cc1ccc(Cl)c(Cl)c1)NCCCCCN1CCCC(CCCNS(=O)(=O)c2cccc3cccnc23)C1 (stereo unspecified)	96%
COc1ccccc1C1CCN(C2CCC(NC(=O)/C=C/c3cccc(Cl)c3F)CC2)CC1 (stereo unspecified)	96%
CC(C)C[C@@H](C(=O)N[C@@H](CCCCNC(=O)OCc1ccccc1)C(=O)Nc1nccs1)[C@H](C)N(O)C=O	99%
CC(CCc1ccccc1)NCC(O)c1ccc2c(c1)S(=O)(=O)c1ccccc1N2 (stereo unspecified)	95%
CCCc1ccc(NC(=O)c2cccc(CN3CCCN(Cc4cccc(C#N)c4)CC3)c2)cc1.O=C(O)C(F)(F)F	85%
O=C(Nc1ccccc1O)c1ccc(S(=O)(=O)c2ccc(Cl)cc2)cc1	90%
Cc1nc(Nc2ccncc2)cc(-c2ccncc2)n1	100%
COc1ccc(CNc2cc(C)nc3sc4c(c23)CCC2(C4)OCCO2)cc1	96%
COc1ccc(Cl)cc1NC(=O)C(C)Nc1ccc(-c2ccccc2)cc1 (stereo unspecified)	91%
COc1ccc(NC(=O)/C=C/c2cc(F)cc(C(F)(F)F)c2)cc1OCCN(C(C)C)C(C)C.O=C(O)C(F)(F)F	97%
COc1ccc(CN(C)CCCOc2ccc(NC(=O)c3cccc4c(=O)c5cccc(C)c5[nH]c34)cc2)cc1OC	96%
COc1cc2nc(N3CCC(c4ccccc4)CC3)nc(NCc3ccc(=O)[nH]c3)c2cc1OC	100%
O=C(O)C(F)(F)F.O=C1CCCN1CCCNCc1ccc(-c2cccc(-c3nc4cc(C(F)(F)F)ccc4[nH]3)c2)cc1	100%
Fc1ccc(CNc2nc(-c3ccc(F)c(C(F)(F)F)c3)n(-c3cccc(C(F)(F)F)c3)n2)cc1	95%
NS(=O)(=O)c1cccc(Nc2nccc(-c3c(-c4cccc(NC(=O)c5c(F)cccc5F)c4)nn4ccccc34)n2)c1	98%
COc1cc(Cl)c(C)cc1N(Cc1ccccc1-c1ccccc1)S(=O)(=O)c1ccc(C(F)(F)F)cc1	90%

---

Test system: Plasmodium falciparum
Test: GSK_TCMDC: Inhibition of Plasmodium falciparum Dd2 in whole red blood cells, using parasite LDH activity as an index of growth. Test compounds present at 2uM
Type: functional
The label 1 is reserved for Inhibition strictly under 80%; 0 covers values equal to or above it.

COMPOUND	LABEL CLASS
Cc1nc(-c2nc(NCCc3c(C)noc3C)ncc2-c2ccsc2)sc1C	0
Cc1cc(N[C@@H](CC(C)C)C(=O)NCCc2ccccc2)nc(NCCc2cccs2)n1.O=C(O)C(F)(F)F	1
NCc1ccc(CNCc2cccc(-c3ccc(-c4nc5ccccc5[nH]4)cc3)c2)cc1.O=C(O)C(F)(F)F	1
CC(C)N1CCN(C(CN2CCN(CCCOc3cccc4ccccc34)CC2)c2ccc(F)cc2)CC1.Cl (centres undefined)	1
O=C(O)C(F)(F)F.c1ccc(-n2ncc(CNCc3ccc(-c4ccc(-c5nc6ccccc6[nH]5)s4)cc3)n2)cc1	1
CN1CCN(CCCNCc2ccccc2-c2cccc(CNCc3ccc4c(c3)OCO4)c2)CC1.O=C(O)C(F)(F)F	1
Oc1c(C(Nc2nc3ccccc3s2)c2ccccc2)ccc2cccnc12 (centres undefined)	0
CS(=O)(=O)c1ccc(CNCc2ccc(-c3ccc(-c4nc5cc(F)ccc5[nH]4)s3)cc2)cc1.O=C(O)C(F)(F)F	0
COc1ccc2nccc([C@@H](O)CN3CCC(NCc4cc5cccc(O)c5c(=O)[nH]4)CC3)c2c1.Cl	1
